Molecular target: p38α/MK2 (Homo sapiens)
Assay: p38α/MK2 cascade assay (IMAP, Hsp27 peptide phosphorylation)
Conditions: p38α/MK2 cascade, Hsp27 peptide 1 μM, MgATP 10 μM, 120 minutes; read-out: p38/MK2 IC50
RECORDED METRIC: IC50 (nM)

Example results:
- MOLECULE: "Cc1ccc(-c2ccnc(C(C)(C)O)n2)cc1-n1c(C)nc(OCc2ccc(F)c(C)c2F)c(Cl)c1=O"
  TESTED ON: "p38α/MK2 (Homo sapiens)"
  UNIT: "nM"
  NUMERIC READOUT: 386
- MOLECULE: "Cc1nc(COc2nc(C)n(-c3cc(-c4ccnc(C(C)(C)O)n4)ccc3C)c(=O)c2Cl)co1 (racemic) [Example 8]"
  TESTED ON: "p38α/MK2 (Homo sapiens)"
  UNIT: "nM"
  NUMERIC READOUT: 121

a = Cc1cccc(COc2nc(C)n(-c3cc(-c4ccnc(C(C)(C)C)n4)ccc3C)c(=O)c2Cl)c1
b = Cc1ccc(-c2ccnc(C(C)(C)O)n2)cc1-n1c(C)nc(OCc2ccc(F)cc2)c(Cl)c1=O
Please choose the item with the lower IC50 value from this pair: a and b Identify your pick by its label. b
(b: 51 nM, a: 1020 nM)

I = Cc1cccc(COc2nc(C)n(-c3cc(-c4ccnc(C(C)(C)O)n4)ccc3C)c(=O)c2Cl)n1 (racemic) [Example 14]
II = Cc1cccc(COc2nc(C)n(-c3cc(-c4ccnc(C(C)(C)O)n4)ccc3C)c(=O)c2Cl)n1 [Example 15]
III = Cc1ccc(-c2ccnc(C(C)(C)O)n2)cc1-n1c(C)nc(OCc2ccc(F)cc2F)c(Cl)c1=O
IV = Cc1cccc(COc2nc(C)n(-c3cc(-c4ccnc(C(C)(C)O)n4)ccc3C)c(=O)c2Cl)n1 (single isomer, unassigned) [Example 16]
# ascending order, key=IC50 Write the labels in rank order as requested. III, II, I, IV

1 = Cc1ccc(-c2ccnc(C(C)(C)O)n2)cc1-n1c(C)nc(OCc2ncc(F)cc2F)c(Cl)c1=O (racemic) [Example 19]
2 = Cc1ccc(-c2ccnc(C(C)(C)O)n2)cc1-n1c(C)nc(OCc2cccc(F)n2)c(Cl)c1=O
3 = Cc1cccc(COc2nc(C)n(-c3cc(-c4ccnc(C(C)(C)O)n4)ccc3C)c(=O)c2Br)n1
4 = Cc1nc(COc2nc(C)n(-c3cc(-c4ccnc(C(C)(C)O)n4)ccc3C)c(=O)c2Cl)co1 [Example 9]
5 = Cc1ccc(-c2ccnc(C(C)(C)O)n2)cc1-n1c(C)nc(OCc2ncc(F)cc2F)c(Cl)c1=O [Example 20]
Please list these in order of increasing IC50. Thank you! Ranked list of labels, please, in the requested order. 1, 3, 4, 2, 5

P = Cc1ccc(-c2ccnc(C(C)(C)O)n2)cc1-n1c(C)nc(OCc2ncc(F)cc2F)c(Cl)c1=O [Example 21]
Q = Cc1nc(COc2nc(C)n(-c3cc(-c4ccnc(C(C)(C)O)n4)ccc3C)c(=O)c2Cl)cs1
Of P and Q , whose reported IC50 is the larger number? Which one? Tell me its label. Q
(Q: 76 nM, P: 33 nM)

###

Biological target: p38α/MK2 (Homo sapiens, UniProt Q16539)
Sequence (Q16539 whole entry): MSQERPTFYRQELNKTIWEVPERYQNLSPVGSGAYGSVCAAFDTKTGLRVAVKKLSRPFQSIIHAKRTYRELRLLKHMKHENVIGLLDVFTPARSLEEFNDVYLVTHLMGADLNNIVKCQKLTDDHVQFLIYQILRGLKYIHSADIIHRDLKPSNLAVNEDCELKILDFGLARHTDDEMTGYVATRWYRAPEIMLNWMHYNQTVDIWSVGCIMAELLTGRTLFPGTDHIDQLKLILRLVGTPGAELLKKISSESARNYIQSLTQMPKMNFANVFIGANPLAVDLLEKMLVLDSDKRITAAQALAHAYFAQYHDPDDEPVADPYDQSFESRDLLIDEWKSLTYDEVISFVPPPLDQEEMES
Sequence (P49137 whole entry partner): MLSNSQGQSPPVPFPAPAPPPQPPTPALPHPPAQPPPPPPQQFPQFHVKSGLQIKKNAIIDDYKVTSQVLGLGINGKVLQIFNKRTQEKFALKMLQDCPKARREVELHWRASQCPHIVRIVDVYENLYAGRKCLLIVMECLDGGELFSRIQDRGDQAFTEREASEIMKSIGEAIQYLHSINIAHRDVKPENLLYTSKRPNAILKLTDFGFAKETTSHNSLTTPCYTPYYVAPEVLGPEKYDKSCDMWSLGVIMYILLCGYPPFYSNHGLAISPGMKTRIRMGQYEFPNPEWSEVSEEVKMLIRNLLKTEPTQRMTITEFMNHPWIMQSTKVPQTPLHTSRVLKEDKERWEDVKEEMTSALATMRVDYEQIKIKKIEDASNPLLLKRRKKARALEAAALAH
Experiment: p38α/MK2 cascade assay (IMAP, Hsp27 peptide phosphorylation)
Conditions: p38α/MK2 cascade, Hsp27 peptide 1 μM, MgATP 10 μM, 120 minutes; read-out: p38/MK2 IC50
pIC50: −log10 of the molar value.
RECORDED METRIC: pIC50

- SMILES CODE: "COc1cccc(COc2nc(C)n(-c3cc(-c4ccnc(C(C)(C)O)n4)ccc3C)c(=O)c2Cl)c1"
  NUMERIC READOUT: 7.21
- SMILES CODE: "Cc1cc(COc2nc(C)n(-c3cc(-c4ccnc(C(C)(C)O)n4)ccc3C)c(=O)c2Cl)c(F)cc1F"
  NUMERIC READOUT: 7.36

P = Cc1ccc(-c2ccnc(C(C)(C)O)n2)cc1-n1c(C)nc(OCc2cccc(C(F)(F)F)n2)c(Cl)c1=O
Q = Cc1nc(COc2nc(C)n(-c3cc(-c4ccnc(C(C)(C)O)n4)ccc3C)c(=O)c2Br)cs1
Of P versus Q , which is the one with smaller reported pIC50? # respond with the chosen item's label P
